Measured Bliss excess of individual entries
# System: MRK-nu-1 (Breast Carcinoma);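 note: after 72 h of two-drug dosing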
# assay-remarks: Bliss excess, mean over the matrix (fraction); higher = more synergy

{"compound": "CC1(C)CCC(CN2CCN(c3ccc(C(=O)NS(=O)(=O)c4ccc(NCC5CCOCC5)c([N+](=O)[O-])c4)c(Oc4cnc5[nH]ccc5c4)c3)CC2)=C(c2ccc(Cl)cc2)C1 [Venetoclax] + Cn1cnc2c(F)c(Nc3ccc(Br)cc3Cl)c(C(=O)NOCCO)cc21 [Selumetinib] (first compound max 1 µM, 7x7, partner max 3 µM)", "study-system": "MRK-nu-1 (Breast Carcinoma)", "Bliss excess": -0.0139}
{"compound": "Cc1nc(-c2cn3c(n2)-c2ccc(-c4cnn(C(C)(C)C(N)=O)c4)cc2OCC3)n(C(C)C)n1 [Taselisib] + O=C(Nc1ccc2[nH]nc(-c3ccncc3)c2c1)[C@@H]1CCN(CC(=O)N2CCN(c3ccc(-c4ncccn4)cc3)CC2)C1 [SCH772984] (first compound max 10 µM, 7x7, partner max 5 µM)", "study-system": "MRK-nu-1 (Breast Carcinoma)", "Bliss excess": 0.0385}

###

# Tested on: HT-3 (Cervical Carcinoma)
# assay-remarks: combination Emax (second highest fraction inhibited in the dose matrix, 72 h); higher = more inhibition; extreme values may be limits of the assay

{"compound": "COc1nnc2ccc(N3CCC(c4ccc(OCCN5CCN(C)C(=O)[C@H]5C)cc4)CC3)nn12 [AZD5153] + C=CCn1c(=O)c2cnc(Nc3ccc(N4CCN(C)CC4)cc3)nc2n1-c1cccc(C(C)(C)O)n1 [AZD1775] (first compound max 1 µM, partner max 1 µM)", "combination Emax": 0.553}
{"compound": "CC1(C)CCC(CN2CCN(c3ccc(C(=O)NS(=O)(=O)c4ccc(NCC5CCOCC5)c([N+](=O)[O-])c4)c(Oc4cnc5[nH]ccc5c4)c3)CC2)=C(c2ccc(Cl)cc2)C1 [Venetoclax] + CN(C)CCCOc1ccc(-c2ccc3ncc4c(c3c2)n(C2CCOCC2)c(=O)n4C)cn1 [AZD0156] (first compound max 1 µM, 7x7, partner max 1 µM)", "combination Emax": 0.145}
{"compound": "CC(=O)c1c(C)c2cnc(Nc3ccc(N4CCNCC4)cn3)nc2n(C2CCCC2)c1=O [Palbociclib] + CN(CC[C@H](CSC1=CC=CC=C1)NC2=C(C=C(C=C2)S(=O)(=O)NC(=O)C3=CC=C(C=C3)N4CCC(CC4)[C@H](C5=CC=CC=C5C6=CC=C(C=C6)Cl)O)S(=O)(=O)C(F)(F)F)CCO [AZD4320] (first compound max 10 µM, 7x7, partner max 1 µM)", "combination Emax": 0.0805}
{"compound": "Cc1c2c(nn1C)CSCc1cc(n(C)n1)CSc1cc(c3ccccc3c1)OCCCc1c(C(=O)O)n(C)c3c-2c(Cl)ccc13 [AZD5991] + CCN(CCO)CCCOc1ccc2c(Nc3cc(CC(=O)Nc4cccc(F)c4)[nH]n3)ncnc2c1 [AZD2811] (first compound max 1 µM, 7x7, partner max 1 µM)", "combination Emax": 0.907}
{"compound": "NC1(C(=O)N[C@@H](CCO)c2ccc(Cl)cc2)CCN(c2ncnc3[nH]ccc23)CC1 [Capivasertib] + Cn1cnc2c(F)c(Nc3ccc(Br)cc3Cl)c(C(=O)NOCCO)cc21 [Selumetinib] (first compound max 10 µM, 7x7, partner max 10 µM)", "combination Emax": 0.281}
